Biological target: Liver carboxylesterase (Sus scrofa, UniProt Q29550)
Assay: in vitro
Conditions: pig, porcine liver carboxylesterase, probe 4-nitrophenol acetate
Description: Inhibition of porcine liver carboxylesterase at 20 uM using 4-nitrophenol acetate as substrate preincubated for 10 mins followed by substrate addition by spectrophotometric analysis relative to control
EXPERIMENTAL_READOUT: inhibition at 20 µM

• CCOC(=O)C1=NNc2c(C(=O)OCC)cnn2C1(O)C(F)(F)F (stereo unspecified) = 9.3%

---

Molecular target: Liver carboxylesterase (Sus scrofa, UniProt Q29550)
Reported IC50 is given for each of the following molecules.
EXPERIMENTAL_READOUT: IC50

• CCOC(=O)C1=NNc2nnnn2C1(O)C(F)(F)C(F)(F)C(F)(F)C(F)(F)F (centres undefined) = 0.83 µM
• COC(=O)C1=NNc2nnnn2C1(O)C(F)(F)C(F)F (centres undefined) = 12.3 µM
• CCOC(=O)C1=NNc2ncnn2C1(O)C(F)(F)F (centres undefined) = 3.6 µM
• CCOC(=O)C1=NNc2c(C(=O)OCC)ncn2C1(O)C(F)(F)F (centres undefined) = 34.4 µM

---

Biological target: Liver carboxylesterase (Sus scrofa, UniProt Q29550)
Sequence (Q29550 whole entry): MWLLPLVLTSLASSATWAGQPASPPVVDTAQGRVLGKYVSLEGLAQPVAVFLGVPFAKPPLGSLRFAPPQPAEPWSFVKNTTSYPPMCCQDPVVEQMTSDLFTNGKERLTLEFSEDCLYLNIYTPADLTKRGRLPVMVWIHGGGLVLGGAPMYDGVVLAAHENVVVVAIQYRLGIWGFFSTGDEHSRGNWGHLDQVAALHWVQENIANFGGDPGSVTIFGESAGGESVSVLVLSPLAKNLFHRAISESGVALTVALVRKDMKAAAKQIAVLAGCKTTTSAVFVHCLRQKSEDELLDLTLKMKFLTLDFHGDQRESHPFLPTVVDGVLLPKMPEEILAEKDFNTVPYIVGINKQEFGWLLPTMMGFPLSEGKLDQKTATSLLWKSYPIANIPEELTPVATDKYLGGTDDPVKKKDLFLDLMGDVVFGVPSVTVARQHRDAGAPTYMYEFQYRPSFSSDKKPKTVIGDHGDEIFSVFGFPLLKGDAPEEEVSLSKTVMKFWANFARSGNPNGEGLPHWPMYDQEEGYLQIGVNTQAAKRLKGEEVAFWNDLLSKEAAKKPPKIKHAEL
EXPERIMENTAL_READOUT: IC50

• CCOC(=O)c1nnc(N)nc1C(F)(F)F = 3.9 µM
• CCOC(=O)C1=NNc2cc(-c3ccccc3)nn2C1(O)C(F)(F)F (centres undefined) = 16.4 µM
• COC(=O)C1=NNc2nnnn2C1(O)C(F)(F)C(F)(F)C(F)(F)F (centres undefined) = 3.29 µM
• COC(=O)C1=NNc2nnnn2C1(O)C(F)(F)C(F)(F)C(F)(F)C(F)(F)F (centres undefined) = 1.31 µM

Ref: ChEMBL document CHEMBL4052659
